The measured values listed here are drawn from patent US9133237B2.

tested on: MCF-7 cancer cells (breast cancer); assay type: cell-based
Recorded endpoint: pEC50
Bear in mind: pEC50 is minus log10 of a mol/L concentration; give just that figure.

So for C[C@@H](O)C(=O)CCCCC[C@@H]1NC(=O)[C@H]2CCCN2C(=O)[C@H](Cc2ccccc2)NC(=O)C(C)(C)NC1=O [(IV′f)] , the logged pEC50 turned out to be 6.27
